measurement_kind: melting point

The following compounds have reported results that may help.
Cc1nn(C)c2c(Nc3ccc4c(c3)OCO4)nc(-c3ccc(F)cc3)nc12.Cl 230 to 232 °C
CCCc1nn(C)c2c(Nc3ccc(OC)c(F)c3)nc(C(F)(F)F)nc12.Cl 136 to 138 °C
Cc1nn(C)c2cc(-c3ccc(F)cc3)nc(-c3cccc(S(C)(=O)=O)c3)c12 186 to 188 °C
Cl.Fc1ccc(-c2nc(Nc3ccc(OC(F)(F)F)cc3)c3cnn(-c4ccccc4)c3n2)cc1 220 to 222 °C
Cc1nn(C)c2c(-n3ccc4ccccc43)nc(-c3ccccc3)nc12 141 to 143 °C

For reference, reported melting point for `CCCc1nn(C)c2c(Nc3ccc(Cl)c(OC)c3)nc(-c3ccccc3)nc12.Cl` stands at 228 to 230 °C

For reference, reported melting point for `Cc1nn(C)c2c(-c3cccc(S(C)(=O)=O)c3)nc(-c3ccc(F)cc3)nc12` stands at 176 to 178 °C

For reference, reported melting point for `CCCc1nn(C)c2c(-c3ccc(O)c(Cl)c3)nc(-c3ccc(F)cc3)nc12` stands at 182 to 184 °C

For reference, reported melting point for `CCCc1nn(C)c2c(-c3ccc(O)c(C)c3)nc(-c3ccc(OC)c(OC)c3)nc12` stands at 198 to 200 °C

For reference, reported melting point for `COc1ccc(Nc2nc(-c3cccs3)nc3c(C)nn(C)c23)cc1F.Cl` stands at 236 to 238 °C

For reference, reported melting point for `COc1cc(Nc2nc(-c3ccccc3)nc3c(C)nn(C)c23)ccc1Cl.Cl` stands at 222 to 224 °C

For reference, reported melting point for `Cc1nn(C)c2c(-c3ccc4c(c3)OCO4)nc(-c3ccccc3)nc12` stands at 142 to 144 °C

For reference, reported melting point for `Cc1nn(C)c2cc(-c3ccc(F)cc3)nc(Nc3ccc(Cl)nc3)c12.Cl` stands at 215 to 218 °C

====

Counter-ions that a name gives are not always drawn.
This listing pairs compounds with measured melting point.

For reference, reported melting point for `CCCc1nn(C)c2c(-c3ccc(OC)c(F)c3)nc(-c3ccc(F)cc3)nc12` stands at 174 to 176 °C

For reference, reported melting point for `CCCc1nn(C)c2c(Nc3ccc(OC)c(Cl)c3)nc(-c3cccs3)nc12.Cl` stands at 258 to 260 °C

For reference, reported melting point for CCCc1nn(C)c2c(Nc3ccc4c(c3)OCO4)nc(-c3cccs3)nc12 (as salt: hydrochloride) stands at 246 to 250 °C

For reference, reported melting point for `CCCc1nn(C)c2c(C#Cc3ccccc3)nc(-c3ccc(F)cc3)nc12` stands at 156 to 158 °C

For reference, reported melting point for `CCCc1nn(C)c2c(Oc3ccc(F)cc3)nc(-c3ccccc3)nc12` stands at 126 to 128 °C

====

- Tested on: human aortic smooth muscle cells
- run_description: Smooth muscle cell proliferation assay (radiolabeled thymidine incorporation or CellTiter AQ)
- Assay type: cell-based
- cond: human aortic SMC, 24 h post treatment in serum-containing growth medium; read-out: Activity: concentration giving 50% inhibition of smooth muscle cell proliferation
Where a name gives a salt, the structure may show the parent alone.
measurement_kind: pIC50
Keep in mind that pIC50 stands for -log10 of concentration in molar terms.

The following molecules have reported results that may help.
molecule	pIC50
Cc1nn(C)c2c(Nc3ccc(OC(F)(F)F)cc3)nc(-c3ccccc3)nc12.Cl [E 38, hydrochloride]	6.64
COc1ccc(Nc2nc(-c3ccccc3)nc3c(C)nn(C)c23)cc1Cl [E 13, hydrochloride]	6.42
Cc1nn(C)c2c(Nc3ccc4c(c3)OCO4)nc(-c3ccc(F)cc3)nc12.Cl [E 19, hydrochloride]	6.35
CCCc1nn(C)c2c(Nc3ccc(OC)c(Cl)c3)nc(-c3ccc(F)cc3)nc12.Cl	5.79
CCCc1nn(C)c2c(Nc3ccc4c(c3)OCO4)nc(-c3cccs3)nc12 [E 52, hydrochloride]	6.30

Item COc1ccc(Nc2nc(-c3ccc(F)cc3)nc3c2cnn3-c2ccccc2)cc1F [E 80, hydrochloride] ; assay system human aortic smooth muscle cells; pIC50 reported as 6.34

Item COc1ccc(Nc2nc(-c3cccs3)nc3c(C)nn(C)c23)cc1Cl.Cl [E 32, hydrochloride] ; assay system human aortic smooth muscle cells; pIC50 reported as 6.03

Item `Cc1nn(C)c2c(Nc3ccc(S(C)(=O)=O)cc3)nc(-c3ccc(F)cc3)nc12` ; assay system human aortic smooth muscle cells; pIC50 reported as 5.86
